Target desc: HLA-A*0202 (human)
Assay remarks: inhibition of 125I-labelled probe peptide binding to purified HLA, gel filtration
Applied conditions: remark: other sources report otherwise
Readings of pIC50 for the listed binders
Please keep in mind that pIC50 is minus log10 of the molar concentration; only the number is needed.

- Binder: "SLHLLSNDMCV (modifications not checked) [Peptide 1418.66 (HuK2.175.V11) …]"
  Quantity: "pIC50"
  Quantitative readout: 9.10
- Binder: "SLQCVSLHL (modifications not checked) [Peptide 60.0191 (HuK2.170) …]"
  Quantity: "pIC50"
  Quantitative readout: 7.29
- Binder: "HLLSNDMCARV (modifications not checked) [Peptide 1418.67 (HuK2.177.V11) …]"
  Quantity: "pIC50"
  Quantitative readout: 8.89

# input Report pIC50 for SLQCVSLHLL (modifications not checked) [Peptide 1419.66 (HuK2.170) …]
# output 8.31
